Test system: Staphylococcus
Assay: Antibacterial activity against penicillin-resistant Staphylococcus pyogenes assessed as growth inhibition after 24 hrs
Format: functional
Calls of active or inactive are those of the source. No cut-off for these calls is given here.
Metric: MIC

Quick check: MIC of COC1OC(C)(c2ccc(-c3ccccc3)cc2)C(=O)CC1N(C)C (single isomer, unassigned; isomer 1) ? 6.2 µg/mL

What do we get for CNC1CC(O)C(C)(c2ccc(-c3ccccc3)cc2)OC1OC (stereo not drawn) ? inactive

What do we get for COC1OC(C)(c2ccc(-c3ccccc3)cc2)C(O)CC1N1CCOCC1 (stereo not drawn) ? inactive

---

Test system: Staphylococcus
Assay: Antibacterial activity against penicillin-sensitive Staphylococcus pyogenes assessed as growth inhibition after 24 hrs
Type: functional
Active and inactive are the calls of the source. No cut-off for these calls is given here.
Metric: MIC

Quick check: MIC of COC1OC(C)(c2ccc(-c3ccccc3)cc2)C(O)CC1N(C)C (stereo in doubt; 3a) ? inactive

What do we get for COC1OC(C)(c2ccc(-c3ccccc3)cc2)C(O)CC1N1CCN(C)CC1 (stereo not drawn) ? inactive

What do we get for COC1C=CC(=O)C(C)(c2ccc(-c3ccccc3)cc2)O1 (single isomer, unassigned; isomer 1) ? 6.2 µg/mL

---

Tested on: Klebsiella pneumoniae
Test: Antibacterial activity against Klebsiella pneumoniae assessed as growth inhibition after 24 hrs
Format: functional
Details: Klebsiella pneumoniae, 24 h; read-out: MIC
Record form. Attribute: MIC. Fill in for each entry.
Give bare numbers, in µg/mL.

Quick check: MIC of CNC1CC(=O)C(C)(c2ccc(-c3ccccc3)cc2)OC1OC (stereo unspecified) ? 0.8

What do we get for COC1OC(C)(c2ccc(-c3ccccc3)cc2)C(=O)CC1N1CCN(C)CC1 (stereo unspecified) ? 6.2

What do we get for CN(C)C(=O)OC1C=CC(=O)C(C)(c2ccc(-c3ccccc3)cc2)O1 (stereo unspecified) ? 6.2

What do we get for COC1OC(C)(c2ccc(-c3ccccc3)cc2)C(=O)CC1N1CCOCC1 (stereo unspecified) ? 3.2

What do we get for COC1OC(C)(c2ccc(-c3ccccc3)cc2)C(=O)CC1N(C)C (stereo in doubt; 2a) ? 3.2

Others:
Quick check: MIC of COC1C=CC(=O)C(C)(c2ccc(-c3ccccc3)cc2)O1 (stereo in doubt; 1a) ? 6.2

---

System: Escherichia coli
Experiment: Antibacterial activity against Escherichia coli 198 assessed as growth inhibition after 24 hrs
Format: functional
The source made the active and inactive calls. No cut-off for these calls is given here.
Metric: MIC

Look up MIC with Escherichia coli for this compound: CNC(=O)OC1C=CC(=O)C(C)(c2ccc(-c3ccccc3)cc2)O1 (stereo not drawn) inactive

What do we get for CNC1CC(O)C(C)(c2ccc(-c3ccccc3)cc2)OC1OC (stereo not drawn) ? inactive

What do we get for COC1OC(C)(c2ccc(-c3ccccc3)cc2)C(O)CC1N(C)C (single isomer, unassigned; isomer 1) ? inactive

What do we get for COC1OC(C)(c2ccc(-c3ccccc3)cc2)C(O)CC1N(C)C (stereo in doubt; 3a) ? inactive

What do we get for COC1OC(C)(c2ccc(-c3ccccc3)cc2)C(O)CC1N1CCOCC1 (stereo not drawn) ? inactive

What do we get for COC1C=CC(=O)C(C)(c2ccc(-c3ccccc3)cc2)O1 (single isomer, unassigned; isomer 1) ? 6.2 µg/mL

For each of the compounds below, state MIC.
1. COC1OC(C)(c2ccc(-c3ccccc3)cc2)C(=O)CC1N(C)C (single isomer, unassigned; isomer 1)
2. COC1OC(C)(c2ccc(-c3ccccc3)cc2)C(O)CC1N1CCN(C)CC1 (stereo not drawn)

1: 6.2 µg/mL; 2: inactive

---

Assay: Antifungal activity against Trichophyton granulosum assessed as growth inhibition after 10 days at 28 degC
Type: functional
Details: Trichophyton mentagrophytes var. granulosum
The source made the active and inactive calls. The rule behind the calls is not given here.
Metric: MIC

Field: example entries. Status: answers known.
Quick check: MIC of COC1OC(C)(c2ccc(-c3ccccc3)cc2)C(O)CC1N(C)C (stereo in doubt; 3a) ? inactive

What do we get for COC1C=CC(=O)C(C)(c2ccc(-c3ccccc3)cc2)O1 (single isomer, unassigned; isomer 1) ? 8 µg/mL

What do we get for CN(C)C(=O)OC1C=CC(=O)C(C)(c2ccc(-c3ccccc3)cc2)O1 (stereo not drawn) ? 6.2 µg/mL

What do we get for COC1OC(C)(c2ccc(-c3ccccc3)cc2)C(O)CC1N1CCN(C)CC1 (stereo not drawn) ? inactive

What do we get for COC1OC(C)(c2ccc(-c3ccccc3)cc2)C(=O)CC1N1CCN(C)CC1 (stereo not drawn) ? 1.6 µg/mL

For each of the molecules below, state MIC.
1. COC1OC(C)(c2ccc(-c3ccccc3)cc2)C(O)CC1N1CCOCC1 (stereo not drawn)
2. COC1OC(C)(c2ccc(-c3ccccc3)cc2)C(O)CC1N(C)C (single isomer, unassigned; isomer 1)
3. COC1OC(C)(c2ccc(-c3ccccc3)cc2)C(=O)CC1N(C)C (stereo in doubt; 2a)

inactive
inactive
8 µg/mL

---

Record form. Attribute: MIC. Fill in for each entry.
Assay: Antifungal activity against Trichophyton granulosum assessed as growth inhibition after 10 days at 28 degC
Assay type: functional
Conditions: Trichophyton mentagrophytes var. granulosum

Field: example entries. Status: answers known.
Quick check: MIC of CNC(=O)OC1C=CC(=O)C(C)(c2ccc(-c3ccccc3)cc2)O1 (stereo not given) ? 1.6 µg/mL

What do we get for COC1OC(C)(c2ccc(-c3ccccc3)cc2)C(=O)CC1N1CCOCC1 (stereo not given) ? 16 µg/mL

What do we get for COC1OC(C)(c2ccc(-c3ccccc3)cc2)C(=O)CC1N(C)C (single isomer, unassigned; isomer 1) ? 8 µg/mL

Lab note: next molecule to report on.
Quick check: MIC of COC1C=CC(=O)C(C)(c2ccc(-c3ccccc3)cc2)O1 (stereo in doubt; 1a) ? 1 µg/mL

---

Tested on: Staphylococcus
Test: Antibacterial activity against penicillin-sensitive Staphylococcus pyogenes assessed as growth inhibition after 24 hrs
Assay type: functional
The source made the active and inactive calls. The rule behind the calls is not given here.
Metric: MIC

Quick check: MIC of COC1OC(C)(c2ccc(-c3ccccc3)cc2)C(=O)CC1N(C)C (single isomer, unassigned; isomer 1) ? 6.2 µg/mL

What do we get for COC1OC(C)(c2ccc(-c3ccccc3)cc2)C(O)CC1N(C)C (single isomer, unassigned; isomer 1) ? inactive

What do we get for CNC1CC(O)C(C)(c2ccc(-c3ccccc3)cc2)OC1OC (stereo not given) ? inactive

What do we get for COC1OC(C)(c2ccc(-c3ccccc3)cc2)C(O)CC1N1CCOCC1 (stereo not given) ? inactive

Lab note: next compound to report on.
Quick check: MIC of CNC(=O)OC1C=CC(=O)C(C)(c2ccc(-c3ccccc3)cc2)O1 (stereo not given) ? inactive

---

Test system: Klebsiella pneumoniae
Experiment: Antibacterial activity against Klebsiella pneumoniae assessed as growth inhibition after 24 hrs
Format: functional
Calls of active or inactive are those of the source. The calls are words filed in the database; no cut-off is given here.
Metric: MIC

Field: example entries. Status: answers known.
Quick check: MIC of CNC(=O)OC1C=CC(=O)C(C)(c2ccc(-c3ccccc3)cc2)O1 (stereo not drawn) ? inactive

What do we get for COC1OC(C)(c2ccc(-c3ccccc3)cc2)C(=O)CC1N(C)C (single isomer, unassigned; isomer 1) ? 6.2 µg/mL

What do we get for COC1C=CC(=O)C(C)(c2ccc(-c3ccccc3)cc2)O1 (single isomer, unassigned; isomer 1) ? 6.2 µg/mL

What do we get for COC1OC(C)(c2ccc(-c3ccccc3)cc2)C(O)CC1N(C)C (stereo in doubt; 3a) ? inactive

For each of the compounds below, state MIC.
1. CNC1CC(O)C(C)(c2ccc(-c3ccccc3)cc2)OC1OC (stereo not drawn)
2. COC1OC(C)(c2ccc(-c3ccccc3)cc2)C(O)CC1N1CCOCC1 (stereo not drawn)
3. COC1OC(C)(c2ccc(-c3ccccc3)cc2)C(O)CC1N(C)C (single isomer, unassigned; isomer 1)
4. COC1OC(C)(c2ccc(-c3ccccc3)cc2)C(O)CC1N1CCN(C)CC1 (stereo not drawn)

1. inactive
2. inactive
3. inactive
4. inactive

---

System: Klebsiella aerogenes
Assay: Antibacterial activity against Aerobacter aerogenes assessed as growth inhibition after 24 hrs
Type: functional
Details: Klebsiella aerogenes, 24 h; read-out: MIC
Metric: MIC (mg/L)
Answers are plain numbers, in mg/L.

Look up MIC with Klebsiella aerogenes for this compound: COC1C=CC(=O)C(C)(c2ccc(-c3ccccc3)cc2)O1 (stereo in doubt; 1a) 6.2

For each of the compounds below, state MIC.
1. COC1OC(C)(c2ccc(-c3ccccc3)cc2)C(=O)CC1N(C)C (stereo in doubt; 2a)
2. CN(C)C(=O)OC1C=CC(=O)C(C)(c2ccc(-c3ccccc3)cc2)O1 (stereo unspecified)
3. COC1OC(C)(c2ccc(-c3ccccc3)cc2)C(=O)CC1N1CCOCC1 (stereo unspecified)
4. COC1OC(C)(c2ccc(-c3ccccc3)cc2)C(=O)CC1N1CCN(C)CC1 (stereo unspecified)
5. CNC1CC(=O)C(C)(c2ccc(-c3ccccc3)cc2)OC1OC (stereo unspecified)

[3.2, 6.2, 3.2, 6.2, 0.8]
